- Test system: SH-SY5Y
- assay_overview: Neuroprotective activity against […]-induced cell death in human SH-SY5Y cells at 10 to 50 uM preincubated for 1 hr followed by […] stimulation and measured after 24 hrs by MTT assay relative to control
- Assay type: functional
- run_parameters: dose 10-50 µM, time 25 hrs
attribute_measured: Activity (%)
The reply should contain only the number, in %.

Problem: Returns the measured Activity for the input compound. Input: NC1=NN(c2ccccc2)C(=O)C12[C@@H](c1ccc(Cl)cc1)c1c([nH]n(-c3ccccc3)c1=O)N[C@H]2c1ccc(Cl)cc1 (some centres undefined)
Result: 20.05

Problem: Returns the measured Activity for the input compound. Input: NC1=NN(c2ccccc2)C(=O)C12[C@@H](c1cccc(Br)c1)c1c([nH]n(-c3ccccc3)c1=O)N[C@H]2c1cccc(Br)c1 (stereo in doubt; 3c-1)
Result: 30.11

Problem: Returns the measured Activity for the input compound. Input: NC1=NN(c2ccccc2)C(=O)C12[C@@H](c1cccs1)c1c([nH]n(-c3ccccc3)c1=O)N[C@H]2c1cccs1 (some centres undefined)
Result: 18.43

Problem: Returns the measured Activity for the input compound. Input: NC1=NN(c2ccccc2)C(=O)C12[C@@H](c1ccccc1[N+](=O)[O-])c1c([nH]n(-c3ccccc3)c1=O)N[C@H]2c1ccccc1[N+](=O)[O-] (some centres undefined)
Result: 20.21
